System: NCI-H522
assay explanation: NCI tumour cell line growth inhibition, 48 h
The source made the active and inactive calls. No stated cut-off is given here; in the data, active = GI50 up to about 1.1 µM and inactive = higher.
quantity: GI50

IN: Please tell me: GI50 of CC(=O)c1cc(CC2Cc3cc4c(cc3C2=O)CCC4)cc2c1CCC2 (configuration not stated) , system NCI-H522?
OUT: 36.9 µM (inactive)

IN: Please tell me: GI50 of C/C(CC(=O)Nc1ccc(NC(=O)C/C(C)=N\NC(N)=O)cc1)=N/NC(N)=O , system NCI-H522?
OUT: > 51.5 µM (inactive)

IN: Please tell me: GI50 of NC1=NCC(CN2CCOCC2)O1 (configuration not stated) , system NCI-H522?
OUT: > 100 µM (inactive)

IN: Please tell me: GI50 of COC1OC(CBr)C(OC(=O)c2ccccc2)C(O)C1Br (configuration not stated) , system NCI-H522?
OUT: > 100 µM (inactive)

IN: Please tell me: GI50 of CCOC(=O)C1(C(=O)OCC)C[C@H](C)[C@](C)(O)C1 , system NCI-H522?
OUT: > 100 µM (inactive)

IN: Please tell me: GI50 of COc1ccc(NC(=O)CC(=O)N2N=C(c3ccccc3)C(/N=N/c3ccc(S(=O)(=O)CCOS(=O)(=O)O)cc3)C2=O)cc1 (configuration not stated) , system NCI-H522?
OUT: > 100 µM (inactive)

IN: Please tell me: GI50 of Cc1ccc([C@@H]2[C@@H](C(=O)c3ccccn3)[C@H](c3ccc(C)cc3)C[C@](O)(c3ccccn3)[C@H]2C(=O)c2ccccn2)cc1 , system NCI-H522?
OUT: 32.8 µM (inactive)

Attribution: ChEMBL document CHEMBL1201862
